meta.source: the Human Domainome abundance scans (Beltran et al. 2025)

Items are presented alongside their recorded abundance fitness.
B1: Ankyrin-3, residues 4094 to 4171; numbered along this chain, Q12955 (parent)
chain: MAIVADHLGLSWTELARELNFSVDEINQIRVENPNSLISQSFMLLKKWVTRDGKNATTDALTSVLTKINRIDIVTLLE

variants of: B1; assay: abundance fitness (aPCA) (normalised: wild type 0, dead -1); higher = more abundant; growth selection in yeast, the domain comes from the species named; settings: Homo sapiens
Please give the numeric answer without any surrounding text.

Some variants with recorded abundance fitness:
>>> df
   mutationspec  reading
0          I73Y   -0.938
1          I71Y    0.082
2           G9A   -0.499
3           G9P   -0.868
4          L37T    -0.03
5          E32R   -0.126
6          A56G   -0.613
7          A60D   -0.627

Turning now to a further variant:
Dear colleague, I am looking for the recorded abundance fitness of the following variant: L19A
-0.591
